Target: T1, human IL-1α (human, UniProt P01583 113-271)
T1 construct: also called IL-1alpha; hIL-1α
T1 sequence (looked up): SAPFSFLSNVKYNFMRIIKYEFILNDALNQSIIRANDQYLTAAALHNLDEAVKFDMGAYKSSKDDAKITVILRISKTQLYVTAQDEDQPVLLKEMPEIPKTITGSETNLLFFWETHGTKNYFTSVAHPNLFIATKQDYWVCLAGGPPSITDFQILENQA
Test: Table 62 IC50; RBA presumed
pIC50: −log10 of the molar value.
readout: pIC50

(I) ABT1-95-127 (other, VK dAb) VL: DIQMTQSPSSLSASVGDRVTITCRASQPIVRNLRWYQQKPGKAPKLLIYSSSYLEPGVPSRFSGSGSGTDFTLTIGSLQPEDFATYHCQQGYRWPITFGQGTKVEIKR
(II) ABT1-95-156 (other, VK dAb) VL: DIQMTQSPSSLSASVGDRVTITCRASQPIVRNLRWYQQKPGKAPKLLIASSSYLEPGVPSRFSGSGSGTDFTLTISSLQPEDFATYHCLQGYRWPVTFGQGTKVEIKR
(III) ABT1-95-142 (other, VK dAb) VL: DIQMTQSPSSLSASVGDRVTITCRASQPITRNLRWYQQKPGKAPKLLIYSSSYLEPGVPSRFSGSGSGTDFTLTISSLQPEDFATYHCQQGYRWPVTFGQGTKVEIKR
(IV) ABT1-141-76 (other, VK dAb) VL: DIQMTQSPSSLSASVGDRVTITCRANQWIQKQLAWYQQKPGKAPKLLIYSSSHLQSGVPSRFSGSGSGTDFTLTISSLQPEDFATYYCQQHLRVPMTFGQGTKVEIKR
Query: Hey, quick one: sort these by pIC50, low to high? Answer by writing out the labels in the requested order.
Result: II, IV, III, I
(II: 8.00, IV: 9.00, III: 9.30, I: 10.00)

// provenance: patent US20090291081A1
